Tested on: PC-3
Experiment: Anticancer activity against hormone-resistant human PC3 cells assessed as cell proliferation at 100 uM after 72 hrs by MTT assay
Format: functional
Settings: PC-3, 72 h
REPORTED_PROPERTY: inhibition at 100 µM (%)
Write the answer as a number in %, unit excluded.

Examples with their reported inhibition at 100 µM follow.
- COMPOUND: "N#Cc1ccc(Cn2cncc2CN2CCCN(C(=O)C3CCCCC3)CC2)cc1"
  MEASURE_UNIT: "%"
  inhibition at 100 µM: 20
- COMPOUND: "N#Cc1ccc(Cn2cncc2CN2CCCN(C(=O)c3ccccc3F)CC2)cc1"
  MEASURE_UNIT: "%"
  inhibition at 100 µM: 2
- COMPOUND: "N#Cc1ccc(Cn2cncc2CN2CCCN(C(=O)c3ccccc3)CC2)cc1"
  MEASURE_UNIT: "%"
  inhibition at 100 µM: 22
- COMPOUND: "N#Cc1ccc(Cn2cncc2CN2CCCN(C(=O)c3ccsc3)CC2)cc1"
  MEASURE_UNIT: "%"
  inhibition at 100 µM: 4
- COMPOUND: "Cc1cccc(C(=O)N2CCCN(Cc3cncn3Cc3ccc(C#N)cc3)CC2)c1"
  MEASURE_UNIT: "%"
  inhibition at 100 µM: 0

Problem: Read off the recorded inhibition at 100 µM for N#Cc1ccc(Cn2cncc2CN2CCCN(C(=O)Cc3cccc4ccccc34)CC2)cc1
Solution: 40

Problem: Input CC(C)CC(=O)N1CCCN(Cc2cncn2Cc2ccc(C#N)cc2)CC1 , output reported inhibition at 100 µM.
Solution: 13

----------
Here the recorded Papp is given for each entry.
Experiment: Apparent permeability across human Caco2 cells
Assay type: ADME, cell-based
Details: Caco-2
Unit ×10⁻⁶ cm/s implied. Number only.

In the examples that follow, each entry is paired with its recorded Papp.
- COMPOUND: "N#Cc1ccc(Cn2cncc2CN2CCN(C(=O)C3CCCCC3)CCC2c2ccccc2)cc1 (stereo unspecified)"
  MEASURE_UNIT: "×10⁻⁶ cm/s"
  Papp: 25.1
- COMPOUND: "CNC(=C[N+](=O)[O-])NCCSCc1ccc(CN(C)C)o1"
  MEASURE_UNIT: "×10⁻⁶ cm/s"
  Papp: 0.7
- COMPOUND: "CC(CCc1ccccc1)NCC(O)c1ccc(O)c(C(N)=O)c1 (stereo unspecified)"
  MEASURE_UNIT: "×10⁻⁶ cm/s"
  Papp: 7.3
- COMPOUND: "N#Cc1ccc(Cn2cncc2CN2CCCN(C(=O)C34CC5CC(CC(C5)C3)C4)CC2)cc1"
  MEASURE_UNIT: "×10⁻⁶ cm/s"
  Papp: 28.8
- COMPOUND: "N#Cc1ccc(Cn2cncc2CN2CCN(C(=O)C34CC5CC(CC(C5)C3)C4)CCC2c2ccccc2)cc1 (stereo unspecified)"
  MEASURE_UNIT: "×10⁻⁶ cm/s"
  Papp: 3.6

Now let's try a different one.
Problem: Return Papp for the following compound: CC(C)NCC(O)COc1cccc2ccccc12 (stereo unspecified)
Solution: 41.1

----------
Tested on: DU-145
Assay: Anticancer activity against hormone-resistant human DU145 cells assessed as cell proliferation after 72 hrs by MTT assay
Format: functional, cell-based
Conditions: DU-145, 72 h
Consider the reported IC50 of an entry and match it to a band in band 1 = under 40 µM, band 2 = from 40 µM up to 50 µM, band 3 = 50 µM and over

Some solved cases for reference:
- COMPOUND: "N#Cc1ccc(Cn2cncc2CN2CCCN(C(=O)c3ccccc3Cl)CC2)cc1"
  ASSIGNED_CLASS: "band 3"
- COMPOUND: "N#Cc1ccc(Cn2cncc2CN2CCCN(C(=O)Cc3cccc4ccccc34)CC2)cc1"
  ASSIGNED_CLASS: "band 3"
- COMPOUND: "N#Cc1ccc(Cn2cncc2CN2CCN(C(=O)c3ccccc3)CCC2c2ccccc2)cc1 (stereo not given)"
  ASSIGNED_CLASS: "band 3"
- COMPOUND: "N#Cc1ccc(Cn2cncc2CN2CCN(C(=O)c3cccc4ccccc34)CCC2c2ccccc2)cc1 (stereo not given)"
  ASSIGNED_CLASS: "band 2"
- COMPOUND: "N#Cc1ccc(Cn2cncc2CN2CCCN(C(=O)c3ccc(Cl)cc3Cl)CC2)cc1"
  ASSIGNED_CLASS: "band 2"

Please find the next compound below.
Problem: Returns: class label. Input: N#Cc1ccc(Cn2cncc2CN2CCN(C(=O)c3ccccc3-c3ccccc3)CCC2c2ccccc2)cc1 (stereo not given)
Solution: band 1
